Target: UniProt:P17948
Sequence (P17948 whole entry, the tested form may be a part): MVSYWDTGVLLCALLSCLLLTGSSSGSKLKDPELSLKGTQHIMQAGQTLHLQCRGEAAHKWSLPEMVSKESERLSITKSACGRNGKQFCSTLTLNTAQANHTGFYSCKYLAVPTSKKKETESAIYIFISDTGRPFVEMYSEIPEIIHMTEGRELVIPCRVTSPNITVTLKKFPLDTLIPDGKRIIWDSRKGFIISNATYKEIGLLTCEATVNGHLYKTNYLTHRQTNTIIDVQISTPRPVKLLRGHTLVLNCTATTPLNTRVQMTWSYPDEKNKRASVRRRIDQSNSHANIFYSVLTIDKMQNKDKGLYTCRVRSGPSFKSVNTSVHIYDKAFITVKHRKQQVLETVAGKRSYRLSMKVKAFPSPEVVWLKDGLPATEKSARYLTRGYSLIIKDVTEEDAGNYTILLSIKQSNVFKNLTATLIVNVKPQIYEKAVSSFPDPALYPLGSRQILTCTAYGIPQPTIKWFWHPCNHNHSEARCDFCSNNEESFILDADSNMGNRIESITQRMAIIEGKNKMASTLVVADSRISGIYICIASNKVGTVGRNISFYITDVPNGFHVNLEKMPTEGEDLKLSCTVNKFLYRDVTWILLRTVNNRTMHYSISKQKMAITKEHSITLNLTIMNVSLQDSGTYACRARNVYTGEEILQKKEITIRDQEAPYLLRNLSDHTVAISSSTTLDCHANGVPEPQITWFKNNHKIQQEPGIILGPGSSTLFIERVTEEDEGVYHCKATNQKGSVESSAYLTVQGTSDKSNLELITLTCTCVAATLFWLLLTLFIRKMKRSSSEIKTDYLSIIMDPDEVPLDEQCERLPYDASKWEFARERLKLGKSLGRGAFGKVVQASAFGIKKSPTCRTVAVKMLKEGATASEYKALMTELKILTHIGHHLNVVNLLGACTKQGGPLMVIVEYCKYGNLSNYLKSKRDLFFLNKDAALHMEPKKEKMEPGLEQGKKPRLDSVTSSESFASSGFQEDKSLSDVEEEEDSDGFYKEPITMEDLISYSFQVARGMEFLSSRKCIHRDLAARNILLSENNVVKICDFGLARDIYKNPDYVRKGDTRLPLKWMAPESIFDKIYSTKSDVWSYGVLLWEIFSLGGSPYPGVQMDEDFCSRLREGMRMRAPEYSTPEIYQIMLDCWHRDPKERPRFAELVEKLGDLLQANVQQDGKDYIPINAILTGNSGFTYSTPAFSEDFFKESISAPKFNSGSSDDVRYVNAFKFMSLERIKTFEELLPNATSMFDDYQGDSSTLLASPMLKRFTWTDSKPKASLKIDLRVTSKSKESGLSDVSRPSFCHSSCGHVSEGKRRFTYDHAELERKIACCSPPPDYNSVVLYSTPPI
Test: Selectivity for Vascular endothelial growth factor receptor 1 over (KDR) kinase insert domain receptor
quantityKind: Selectivity

Worked examples follow.
[[record]]
moleculesmiles = "Cc1ccc(Nc2ncc(-c3ccccc3)s2)nc1"
obsvalue = 5

[[record]]
moleculesmiles = "Clc1ccc(Nc2ncc(-c3ccccc3)s2)nc1"
obsvalue = 6

[[record]]
moleculesmiles = "Cc1cccnc1Nc1ncc(-c2ccccc2)s1"
obsvalue = 16

[[record]]
moleculesmiles = "Cc1cccc(Nc2ncc(-c3ccccc3)s2)n1"
obsvalue = 8


[A] O=C(Nc1ncc(-c2ccccc2)s1)c1ccccc1
[B] Cc1ccnc(Nc2ncc(-c3ccccc3)s2)c1
[C] Brc1cccc(Nc2ncc(-c3ccccc3)s2)n1
[D] N#Cc1cnc(Nc2ccccn2)s1
Task field, ranking: reported Selectivity, descending order. Answer by listing the labels in the order asked for.
D, C, B, A

====

Molecular target: Proto-oncogene tyrosine-protein kinase Src (Homo sapiens) (UniProt P12931)
Sequence (P12931 2-536 limits assumed): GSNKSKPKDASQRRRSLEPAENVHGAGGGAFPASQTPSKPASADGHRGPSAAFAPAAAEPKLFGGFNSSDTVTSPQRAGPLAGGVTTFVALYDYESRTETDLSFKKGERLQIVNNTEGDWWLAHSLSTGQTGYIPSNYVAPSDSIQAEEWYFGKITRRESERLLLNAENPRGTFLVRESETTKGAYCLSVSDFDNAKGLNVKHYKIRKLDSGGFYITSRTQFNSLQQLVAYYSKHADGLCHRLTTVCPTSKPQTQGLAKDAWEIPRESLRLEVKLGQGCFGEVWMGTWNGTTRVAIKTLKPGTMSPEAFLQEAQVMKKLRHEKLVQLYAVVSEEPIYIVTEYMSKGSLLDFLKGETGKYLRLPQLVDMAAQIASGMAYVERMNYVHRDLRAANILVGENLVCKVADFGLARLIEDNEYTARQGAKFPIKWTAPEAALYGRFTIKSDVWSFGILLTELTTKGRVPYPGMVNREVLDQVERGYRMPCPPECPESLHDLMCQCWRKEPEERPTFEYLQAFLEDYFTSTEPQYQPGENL
Assay: Selectivity for Src protein tyrosine kinase over (KDR) kinase insert domain receptor
quantityKind: Selectivity

Worked examples follow.
[[record]]
moleculesmiles = "Clc1ccc(Nc2ncc(-c3ccccc3)s2)nc1"
quantitykind = "Selectivity"
obsvalue = "> 580"

[[record]]
moleculesmiles = "CCCCN(C)c1ccc(/N=N/c2ncc([N+](=O)[O-])s2)c(C)c1"
quantitykind = "Selectivity"
obsvalue = "> 130"


From here, focus on the item given below.
Record request: Selectivity value, item O=C(Nc1ncc(-c2ccccc2)s1)c1ccccc1
> 240
